Assayed Target: NK-1 receptor (Homo sapiens)
Construct: endogenous in cells
Protocol: NK-1 Receptor Binding Assay (125I-labeled substance P, IM9 cells)
Settings: inhibits fifty percent of binding of 125I-substance P to IM9 cells
pIC50: −log10 of the molar value.
Measurement Label: pIC50

>>> observed("O=C(CN1CCN(c2ccccc2)CC1)NC(CNCc1ccccc1Cl)Cc1c[nH]c2ccccc12 (stereo not drawn) [Example 2]")
7.44
>>> observed("COc1ccccc1CN(CC(NC(=O)CN1CCC(N2CCCCC2)CC1)c1ccc(Cl)c(Cl)c1)C(C)=O (stereo not drawn) [Example 147]")
6.71
>>> observed("COc1ccccc1CN(CC(Cc1c[nH]c2ccccc12)NC(=O)CN1CCN(Cc2ccccc2)CC1)C(C)=O (stereo not drawn) [Example 77]")
9.06
>>> observed("COc1ccccc1CN(CC(Cc1c[nH]c2cccc(C)c12)NC(=O)CN1CCC(N2CCCCC2)CC1)C(C)=O (stereo not drawn) [Example 125]")
9.18
>>> observed("COc1ccccc1CNCC(Cc1c[nH]c2ccc(OCc3ccccc3)cc12)NC(=O)CN1CCC(N2CCCCC2)CC1 (stereo not drawn) [Example 122]")
6.26

P. COc1ccccc1CN(CC(Cc1c[nH]c2ccc(C)cc12)NC(=O)CN1CCC(N2CCCCC2)CC1)C(C)=O (stereo not drawn) [Example 126]
Q. COc1ccccc1CN(CC(Cc1c[nH]c2ccccc12)NC(=O)OCc1ccccc1)C(C)=O (stereo not drawn) [Example 92]
R. CCC(=O)N(Cc1ccccc1OC)CC(Cc1c[nH]c2ccccc12)NC(=O)CN1CCN(c2ccccc2)CC1 (stereo not drawn) [Example 26]
S. CSc1ccc(CN(CC(Cc2c[nH]c3ccccc23)NC(=O)CN2CCN(c3ccccc3)CC2)C(C)=O)cc1 (stereo not drawn) [Example 23]
hey, can you rank those molecules up there by pIC50? biggest number first please Write the labels in rank order as requested.
R, P, S, Q

P. COc1ccccc1CN(CC(Cc1c[nH]c2ccccc12)NC(=O)CCCc1ccccc1)C(C)=O (stereo not drawn) [Example 94]
Q. CC(NCC(Cc1c[nH]c2ccccc12)NC(=O)CN1CCC(N2CCCCC2)CC1)c1ccccc1 (stereo not drawn) [Example 102]
Lab note: check whether P or Q shows the higher recorded pIC50. Mark your selection by writing its label.
P

P. COc1ccccc1CN(CC(Cc1c[nH]c2ccc(OCc3ccccc3)cc12)NC(=O)CN1CCC(N2CCCCC2)CC1)C(C)=O (stereo not drawn) [Example 131]
Q. COc1ccccc1CN(CC(Cc1c[nH]c2ccccc12)NC(=O)c1ccccc1)C(C)=O (stereo not drawn) [Example 88]
Lab note: check whether P or Q shows the higher recorded pIC50. Mark your selection by writing its label.
P
(P: 7.17, Q: 6.92)

---

Assayed Target: NK-1 receptor (Homo sapiens)
Construct: endogenous in cells
Protocol: NK-1 Receptor Binding Assay (125I-labeled substance P, IM9 cells)
Settings: inhibits fifty percent of binding of 125I-substance P to IM9 cells
pIC50: −log10 of the molar value.
Measurement Label: pIC50

P. CC(=O)N(CCc1ccccc1)CC(Cc1c[nH]c2ccccc12)NC(=O)CN1CCC(N2CCCCC2)CC1 (stereo not shown)
Q. COc1ccccc1CN(CC(Cc1c[nH]c2ccccc12)NC(=O)CN1CCC(NC(C)=O)(c2ccccc2)CC1)C(C)=O (stereo not shown)
R. COc1ccccc1CNCC(NC(c1ccccc1)(c1ccccc1)c1ccccc1)c1ccccc1 (stereo not shown)
S. COc1ccccc1CN(CC(C)(Cc1c[nH]c2ccccc12)NC(=O)CN1CCC(N2CCCCC2)CC1)C(C)=O (stereo not shown)
# ascending order, key=pIC50 Write the labels in rank order as requested.
R, P, S, Q
(R: 7.13, P: 7.52, S: 8.38, Q: 9.39)

---

Assayed Target: NK-1 receptor (Homo sapiens, UniProt P25103)
Construct: endogenous in cells; host or cells: IM9 cells (human cell line), whole cells
Sequence (P25103 whole entry): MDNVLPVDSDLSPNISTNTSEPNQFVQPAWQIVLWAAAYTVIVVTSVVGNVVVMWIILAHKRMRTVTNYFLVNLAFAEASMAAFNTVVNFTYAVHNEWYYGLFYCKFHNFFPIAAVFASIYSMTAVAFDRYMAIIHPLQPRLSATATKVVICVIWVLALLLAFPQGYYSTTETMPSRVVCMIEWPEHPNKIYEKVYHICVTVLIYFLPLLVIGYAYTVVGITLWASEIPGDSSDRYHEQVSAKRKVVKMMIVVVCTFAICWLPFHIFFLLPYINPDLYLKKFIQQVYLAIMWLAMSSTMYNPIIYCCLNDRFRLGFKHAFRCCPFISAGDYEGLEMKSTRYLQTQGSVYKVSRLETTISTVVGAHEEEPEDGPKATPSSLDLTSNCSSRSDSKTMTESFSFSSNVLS
Protocol: NK-1 Receptor Binding Assay (125I-labeled substance P, IM9 cells)
Settings: inhibits fifty percent of binding of 125I-substance P to IM9 cells
pIC50: −log10 of the molar value.
Measurement Label: pIC50

See these solved cases before continuing.
>>> observed("COc1ccccc1CN(CC(Cc1c[nH]c2ccccc12)NC(=O)CN1CCN(c2ccccc2)CC1)C(=O)CO (stereo not shown) [Example 33]")
8.72
>>> observed("COc1ccccc1CN(CC(Cc1c[nH]c2ccccc12)NC(=O)CN1CCN(c2ccccc2)CC1)C(=O)c1ccccc1 (stereo not shown) [Example 27]")
8.80
>>> observed("COc1ccccc1CN(CC(Cc1c[nH]c2ccccc12)NC(=O)CN1CCN(c2ncccn2)CC1)C(C)=O (stereo not shown) [Example 78]")
8.00
>>> observed("COc1ccccc1CN(CC(Cc1c[nH]c2c(C)cccc12)NC(=O)CN1CCN(c2ccccc2)CC1)C(C)=O (stereo not shown) [Example 115]")
7.81
>>> observed("COc1ccccc1CNCC(Cc1c[nH]c2ccccc12)NC(=O)CN1CCN(c2ccccc2)CC1 (stereo not shown) [Example 4]")
7.40

A. COc1ccc2[nH]cc(CC(CN(Cc3ccccc3OC)C(C)=O)NC(=O)CN3CCC(N4CCCCC4)CC3)c2c1 (stereo not shown) [Example 130]
B. COc1ccccc1CN(CC(Cc1c[nH]c2ccccc12)NC(=O)CN1CCN(c2ccccc2)CC1)C(=O)CN (stereo not shown) [Example 34]
Lab note: check whether A or B shows the higher recorded pIC50. Mark your selection by writing its label.
B

---

Assayed Target: NK-1 receptor (Homo sapiens)
Construct: endogenous in cells; host or cells: IM9 cells (human cell line), whole cells
Protocol: NK-1 Receptor Binding Assay (125I-labeled substance P, IM9 cells)
Settings: @ 5 μM
Measurement Label: NK-1 percent inhibition of binding (% @ 5 μM)

1. CC(=O)N(C)CC(Cc1c[nH]c2ccccc12)NC(c1ccccc1)(c1ccccc1)c1ccccc1 (stereo not shown)
2. COc1ccccc1CN(CC(NC(c1ccccc1)(c1ccccc1)c1ccccc1)c1ccc(Cl)c(Cl)c1)C(C)=O (stereo not shown)
Lab note: check whether 1 or 2 shows the higher recorded NK-1 percent inhibition of binding. Mark your selection by writing its label.
2
(2: 9 % @ 5 μM, 1: 0 % @ 5 μM)

---

Assayed Target: NK-1 receptor (Homo sapiens)
Construct: endogenous in cells; host or cells: IM9 cells (human cell line), whole cells
Protocol: NK-1 Receptor Binding Assay (125I-labeled substance P, IM9 cells)
Settings: @ 5 μM
Measurement Label: NK-1 percent inhibition of binding (% @)

>>> observed("COc1ccccc1CN(CC(Cc1ccccc1)NC(=O)CBr)C(C)=O (centres unmarked) [Example 161a]")
77
>>> observed("COc1ccccc1CN(CC(N)Cc1cn(C)c2ccccc12)C(C)=O (centres unmarked) [Example 160]")
0

1. CN(CC(Cc1c[nH]c2ccccc12)NC(=O)CN1CCN(c2ccccc2)CC1)C(=O)c1ccccc1 (centres unmarked) [Example 157]
2. COc1ccccc1CN(CC(NC(=O)CBr)c1ccccc1)C(C)=O (centres unmarked) [Example 161]
Lab note: check whether 1 or 2 shows the higher recorded NK-1 percent inhibition of binding. Mark your selection by writing its label.
1
(1: 88 % @, 2: 24 % @)

---

Assayed Target: NK-1 receptor (Homo sapiens)
Construct: endogenous in cells; host or cells: IM9 cells (human cell line), whole cells
Protocol: NK-1 Receptor Binding Assay (125I-labeled substance P, IM9 cells)
Settings: @ 5 μM
Measurement Label: NK-1 percent inhibition of binding (% @)

See these solved cases before continuing.
>>> observed("NCC(NC(c1ccccc1)(c1ccccc1)c1ccccc1)c1ccc(Cl)c(Cl)c1 (centres unmarked) [Example 172]")
46
>>> observed("CC(=O)N(CC(Cc1c[nH]c2ccccc12)NC(=O)CN1CCC(N2CCCCC2)CC1)c1ccccc1 (centres unmarked) [Example 53]")
58

I. CC(=O)NC1(c2ccccc2)CCN(CC(=O)NC(Cc2c[nH]c3ccccc23)CN(C)C(=O)c2ccccc2)CC1 (centres unmarked) [Example 156]
II. COc1ccccc1CN(CC(N)Cc1ccccc1)C(C)=O (centres unmarked) [Example 159]
III. CC(=O)N(C)CC(Cc1c[nH]c2ccccc12)NC(=O)CN1CCN(c2ccccc2)CC1 (centres unmarked) [Example 38]
hey, can you rank those molecules up there by NK-1 percent inhibition of binding? biggest number first please Write the labels in rank order as requested.
I, II, III
(I: 78 % @, II: 54 % @, III: 30 % @)

---

Assayed Target: human NK-2 receptor (Homo sapiens)
Construct: expressed in transfected cells; host or cells: CHO-hNK-2R cells (CHO-derived), membrane preparation
Sequence (P21452 whole entry): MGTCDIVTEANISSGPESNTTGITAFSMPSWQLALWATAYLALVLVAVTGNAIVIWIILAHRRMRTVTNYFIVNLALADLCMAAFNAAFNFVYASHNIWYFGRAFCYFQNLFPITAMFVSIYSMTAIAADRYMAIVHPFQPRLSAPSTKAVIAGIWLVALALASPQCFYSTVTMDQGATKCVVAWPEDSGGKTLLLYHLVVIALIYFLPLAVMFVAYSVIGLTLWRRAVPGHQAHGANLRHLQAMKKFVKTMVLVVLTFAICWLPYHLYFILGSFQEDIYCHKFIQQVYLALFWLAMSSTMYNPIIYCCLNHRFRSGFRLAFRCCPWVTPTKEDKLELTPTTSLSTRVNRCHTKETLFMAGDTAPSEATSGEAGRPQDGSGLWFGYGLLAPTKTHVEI
Protocol: NK-2 Receptor Binding Assay ([125I]iodohistidyl-neurokinin A, CHO-hNK-2R membranes)
Settings: @ 10 μM
Measurement Label: NK-2 percent inhibition of binding (% @)

>>> observed("COc1ccccc1CN(CC(NC(c1ccccc1)(c1ccccc1)c1ccccc1)c1ccc(Cl)c(Cl)c1)C(C)=O (stereo not drawn)")
0

a. COc1ccccc1CN(CC(Cc1ccccc1)NC(c1ccccc1)(c1ccccc1)c1ccccc1)C(C)=O (stereo not drawn)
b. O=C(NCC(Cc1ccccc1)NC(=O)c1ccccc1)c1ccccc1 (stereo not drawn)
Lab log: flag the item ( a or b ) with the smaller NK-2 percent inhibition of binding figure. Mark your selection by writing its label.
a

a. COc1ccccc1CN(CC(Cc1c[nH]c2cc(C)ccc12)NC(c1ccccc1)(c1ccccc1)c1ccccc1)C(C)=O (stereo not drawn)
b. CC(=O)NC(Cc1c[nH]c2ccccc12)CN(C(C)=O)C(C)c1ccccc1 (stereo not drawn) [Example 99]
c. COc1ccccc1CN(CC(NC(=O)CBr)c1ccccc1)C(C)=O (stereo not drawn)
d. COc1ccccc1CN(CC(NC(c1ccccc1)(c1ccccc1)c1ccccc1)c1ccccc1)C(C)=O (stereo not drawn)
e. CC(=O)N(Cc1ccccc1Cl)CC(Cc1c[nH]c2ccccc12)NC(c1ccccc1)(c1ccccc1)c1ccccc1 (stereo not drawn)
hey, can you rank those molecules up there by NK-2 percent inhibition of binding? biggest number first please Write the labels in rank order as requested.
b, d, a, e, c
(b: 54 % @, d: 9 % @, a: 6 % @, e: 2 % @, c: 0 % @)

P. CC(NCC(Cc1c[nH]c2ccccc12)NC(=O)CN1CCC(N2CCCCC2)CC1)c1ccccc1 (stereo not drawn)
Q. COc1ccccc1CN(CC(Cc1cn(C)c2ccccc12)NC(=O)CBr)C(C)=O (stereo not drawn)
Lab note: check whether P or Q shows the higher recorded NK-2 percent inhibition of binding. Mark your selection by writing its label.
P
